Measured values drawn from PubChem BioAssay AID1851 for this set.

testedSystem: Cytochrome P450 2C9 (Homo sapiens) (UniProt P11712)
Sequence (P11712 whole entry, looked up): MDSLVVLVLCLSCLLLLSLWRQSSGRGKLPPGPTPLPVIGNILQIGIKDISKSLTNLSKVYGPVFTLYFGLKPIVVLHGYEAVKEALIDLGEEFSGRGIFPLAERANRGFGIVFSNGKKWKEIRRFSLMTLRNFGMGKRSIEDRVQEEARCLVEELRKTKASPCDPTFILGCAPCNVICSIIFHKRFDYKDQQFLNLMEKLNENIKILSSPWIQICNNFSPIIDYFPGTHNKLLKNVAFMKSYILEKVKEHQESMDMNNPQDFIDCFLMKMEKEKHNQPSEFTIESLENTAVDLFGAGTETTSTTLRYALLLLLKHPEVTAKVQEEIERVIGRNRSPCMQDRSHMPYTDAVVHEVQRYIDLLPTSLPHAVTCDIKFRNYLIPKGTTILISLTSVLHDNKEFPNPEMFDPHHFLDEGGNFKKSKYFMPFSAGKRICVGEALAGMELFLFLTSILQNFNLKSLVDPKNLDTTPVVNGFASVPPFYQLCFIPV
assayRemarks: Cytochrome panel assay with activity outcomes
conditions: recombinant CYP, pro-luciferin dealkylation, luminescence, p450-cyp2c9; series mostly up to 57.1 µM
Method: The P450 gene superfamily is involved in the metabolism and clearance of xenobiotics. This assay used various human CYP P450 isozymes to measure the dealkylation of various pro-luciferin substrates to luciferin. The luciferin is then measured by luminescence after the addition of a luciferase detection reagent. […] Inhibitors and some substrates limit the production of luciferin, and decrease measured luminescence. […] 8, Detection, 1 sec, ViewLux luminescent read […]
The whole screen tested about 16,000 compounds, of which about 4,000 (25%) were called active. Not shown: some 26% with an inconclusive outcome. The call rests on the fitted dose curve; in most records, active means well fitted curve in the direction sought with a large enough effect; inconclusive means small, poorly fitted or top-dose-only effect, or effect the other way; inactive means no such curve, though single readings can be large or run the other way. A selection follows.
Assign a class; possible classes are active, inactive

Consider the following illustrative entries.
O=[N+]([O-])c1ccc(N2CCCC2)cc1NCc1ccccc1: active
CS(=O)(=O)N1CCN(c2ccc([N+](=O)[O-])c(NCc3ccccc3)c2)CC1: active

Input: Dear colleague, could you share the recorded outcome for CC(C)(C)NC(=O)Cn1cnc([N+](=O)[O-])n1 when you have a moment?
Output: inactive

---

testedSystem: Cytochrome P450 2C9 (Homo sapiens) (UniProt P11712)
assayRemarks: Cytochrome panel assay with activity outcomes
conditions: recombinant CYP, pro-luciferin dealkylation, luminescence, p450-cyp2c9; series mostly up to 57.1 µM
In all, about 16,000 compounds went through this assay and about 4,000 (25%) were called active. Inconclusive results (about 26%) are left out. The call rests on the fitted dose curve; in most records, active means well fitted curve in the direction sought with a large enough effect; inconclusive means small, poorly fitted or top-dose-only effect, or effect the other way; inactive means no such curve, though single readings can be large or run the other way. The list is a sample of the results.
Assign a class; possible classes are active, inactive

Consider the following illustrative entries.
CCOc1ccc(/C(O)=C2/C(=O)C(=O)N(CCCn3ccnc3)C2c2cccs2)cc1Cl (centres undefined): active
Cc1ccc(C(=O)NNC(=O)CSc2nnc(-c3ccncc3)n2-c2ccc(C)cc2)cc1: active
COc1ccc(/C(O)=C2/C(=O)C(=O)N(CCN3CCOCC3)C2c2ccc(C)cc2)cc1 (centres undefined): inactive

Moving on to the next compound.
Input: Dear colleague, could you share the recorded outcome for COc1ccc(/C(O)=C2/C(=O)C(=O)N(CCCC(=O)O)C2c2ccc(OC)cc2)cc1 (centres undefined) when you have a moment?
Output: inactive

---

testedSystem: Cytochrome P450 2C9 (Homo sapiens) (UniProt P11712)
assayRemarks: Cytochrome panel assay with activity outcomes; on activity, negative = inhibition: on the % scale 0 is the no-effect control and ±100 the full control effect
conditions: recombinant CYP, pro-luciferin dealkylation, luminescence, p450-cyp2c9; series mostly up to 57.1 µM
Among all 16,000 compounds or so, about 4,000 (25%) were called active. Another 26% or so got no clear call; they are omitted. The list is a sample of the results.
measuredParameter: activity, negative = inhibition

Give me activity, negative = inhibition for each of these compounds, listed below.
1. CC(C)C(=O)N[C@H]1CCCN1C(=O)/C=C\c1ccccc1
2. CN(C)C(=O)c1ccc(-c2ccc3ncnc(NCc4cccs4)c3c2)cc1
3. O=C(O)c1ccccc1NCn1c(=S)sc2ccccc21

Output:
-2.39% [at 11.4 µM] (inactive)
8.22% [at 2.29 µM] (inactive)
-5.72% [at 11.4 µM] (inactive)

---

Task for the reader: assign each of the following compounds its reported activity, negative = inhibition.
testedSystem: Cytochrome P450 2C9 (Homo sapiens)
assayRemarks: Cytochrome panel assay with activity outcomes; on activity, negative = inhibition: on the % scale 0 is the no-effect control and ±100 the full control effect
conditions: recombinant CYP, pro-luciferin dealkylation, luminescence, p450-cyp2c9; series mostly up to 57.1 µM
Screen size: about 16,000 compounds; about 4,000 (25%) were called active. Roughly 26% stayed inconclusive and do not appear here. The list is a sample of the results.

Cc1ccccc1-c1nc(Nc2ccncc2)c2ccccc2n1: -3.63% [at 2.29 µM] (inactive)

Give me activity, negative = inhibition for each of these compounds, listed below.
1. C/C(CCN1CCCc2nc(C)c(C)cc21)=N\O[C@@H](C)CN1CCCCc2nc(C)c(C)cc21
2. CC(=O)NCCNc1ncnc2ccc(-c3ccc(C(=O)N(C)C)cc3)cc12

Output:
1: -3.15% [at 11.4 µM] (inactive); 2: 3.47% [at 2.29 µM] (inactive)
